- Test system: U2OS
- Assay summary: Multiplex assay against U2OS
- Format: toxicity, cell-based
- Measurement setup: human, 24 h, 1 µM, compound concentration 1 uM, replicate 1
Parameter measured: Population Pyknosed Nuclei (%)

Compound	Parameter measured	Observed result
CCCn1c(=O)c2[nH]c(C34CC5CC(CC3C5)C4)nc2n(CCC)c1=O	Population Pyknosed Nuclei (%)	15
Nc1nc2c(c(N3CCNCC3)n1)CCC1=C2[C@@H]2CCCC[C@@H]2O1	Population Pyknosed Nuclei (%)	19
Cc1cc2c(cc1N1C(=O)c3cccc4c(CCCO)ccc(c34)C1=O)n(C)c(=O)n2C	Population Pyknosed Nuclei (%)	7
CC(C)N1CCC(C)(C)c2cc(C#Cc3ccc(C(=O)O)cc3)ccc21	Population Pyknosed Nuclei (%)	7
CCn1c(-c2nonc2N)nc2cnc(Oc3cccc(NC(=O)c4ccc(OCCN5CCOCC5)cc4)c3)cc21 [GSK-269962A]	Population Pyknosed Nuclei (%)	17

* * *

- Tested on: HEK-293T
- Assay summary: Incucyte cell viability with HEK293T; note: filed as whole numbers so only -1 and 0 and 1 occur
- Type: toxicity, cell-based
- Measurement setup: human, 0 h, 10 µM, compound concentration 10 uM, replicate number 1, timepoint 0 hours

Compound	Growth Rate
Cc1cnc(-c2cc(Cl)ccc2F)cc1-n1c(=O)n(CC(N)=O)c2cnccc21	0
CCNC(=O)c1cc2c(N3CCOC[C@@H]3C)ccnc2[nH]1	1
COc1cccc(OC)c1-c1cc(C(=O)NC2(C(=O)O)C3CC4CC(C3)CC2C4)nn1-c1ccnc2cc(Cl)ccc12 (stereo not drawn)	0
N#Cc1cnc(Nc2cc(NC[C@H]3CNCCO3)c(C(F)(F)F)cn2)cn1	0
Cc1cc2c(cc1N1C(=O)c3cccc4c(CCCO)ccc(c34)C1=O)n(C)c(=O)n2C	1
CCCc1c(-c2ccc(O)cc2)nn(-c2ccc(O)cc2)c1-c1ccc(O)cc1	0
Cc1cc(C(=O)N2Cc3cnn(C)c3Nc3ccccc32)ccc1CNC(=O)N1CCC[C@H]1C(=S)N1CCCN(C)CC1	1
CN(C)CCCn1cc(C2=C(c3c[nH]c4ccccc34)C(=O)NC2=O)c2ccccc21	0
Nc1nc(NCCc2ccc(O)cc2)nc2nc(-c3ccco3)nn12	1
CC(C)NCC(O)c1ccc(N)c(C#N)c1 (stereo not drawn)	0
CN(C(=O)Cc1ccc(Cl)c(Cl)c1)C(CN1CCCC1)c1cccc(OCC(=O)O)c1.Cl (stereo not drawn)	0
O=C(NC[C@H](O)CN1CCc2ccccc2C1)c1ccnc(NC2CCC2)c1	1
CNc1cc2[nH]c(=O)n(-c3ccc(NC(=O)NS(=O)(=O)c4ccc(Cl)s4)cc3)c(=O)c2cc1F	1
Cc1cccc(NC(=O)N[C@@H]2N=C(c3ccccc3)c3ccccc3N(C)C2=O)c1	0
N#Cc1c(N)nc(SCC(N)=O)c(C#N)c1-c1ccc(OCC2CC2)cc1	0
CC(C)N1CCC(C)(C)c2cc(C#Cc3ccc(C(=O)O)cc3)ccc21	1
C[C@@H]1CCc2ncc(F)cc2[C@H]2CCCN2c2ccn3ncc(c3n2)C(=O)N1	0
C[C@H](CO)Nc1nc(SCc2cccc(Cl)c2F)nc2[nH]c(=O)sc12	0

* * *

# Growth Rate per record follows
- System: Fibroblast
- Assay summary: Incucyte cell viability with human fibroblast; note: filed as whole numbers so only -1 and 0 and 1 occur
- Format: toxicity, cell-based
- Measurement setup: 0 h, 10 µM, compound concentration 10 uM, replicate number 1, timepoint 0 hours
Parameter measured: Growth Rate

Compound	Assayed target	Observed result
CC(C)(C)c1cnc(CSc2cnc(NC(=O)C3CCNCC3)s2)o1 [BMS-387032]	Fibroblast	0
O=C(Nc1cccc2c(=O)cc(-c3nnn[nH]3)oc12)c1ccc(OCCCCc2ccccc2)cc1	Fibroblast	0
O=C(NCc1ccc(F)cc1)C1CCN(S(=O)(=O)c2cc(Cl)cc(Cl)c2)CC1	Fibroblast	0
O=C(O)c1ccc2c(c1)nc(Nc1cccc(Cl)c1)c1ccncc12 [SILMITASERTIB]	Fibroblast	0
CCc1cc2c(c(CC)n1)CCC(=O)N2Cc1ccc(-c2ccccc2-c2nnn[nH]2)cc1.Cl	Fibroblast	0
